target: hEP4 (C6 glioma cells overexpressing hEP4) (Homo sapiens, UniProt P35408); construct: host or cells: C6 glioma cells overexpressing hEP4; test: hEP4 cell based assay (cAMP), inhibition of PGE2 induced cAMP, HTRF; settings: 1 μM compound, PGE2 at EC80
Sequence (P35408 whole entry): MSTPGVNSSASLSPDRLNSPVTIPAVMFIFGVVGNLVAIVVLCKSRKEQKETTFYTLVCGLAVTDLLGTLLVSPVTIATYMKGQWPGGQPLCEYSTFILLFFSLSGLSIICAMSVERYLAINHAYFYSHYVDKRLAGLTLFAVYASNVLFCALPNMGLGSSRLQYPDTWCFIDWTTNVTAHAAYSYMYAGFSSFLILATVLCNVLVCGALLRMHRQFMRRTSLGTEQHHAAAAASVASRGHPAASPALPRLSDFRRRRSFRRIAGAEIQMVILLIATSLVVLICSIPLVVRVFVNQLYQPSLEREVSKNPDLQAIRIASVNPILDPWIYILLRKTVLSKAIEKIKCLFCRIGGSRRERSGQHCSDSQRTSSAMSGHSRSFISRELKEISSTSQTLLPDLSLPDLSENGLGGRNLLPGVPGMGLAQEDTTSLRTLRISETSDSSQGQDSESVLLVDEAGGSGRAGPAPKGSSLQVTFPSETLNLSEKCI
parameter: inhibition at 1 µM (%)
Kindly provide the numeric value in % only, without the unit symbol.

Record summary for C[C@H](Nc1nccc2c1N(Cc1ccc(F)c(F)c1)CCO2)c1ccc(C(=O)O)cc1 [Example B6] : reported inhibition at 1 µM = 100

Measured inhibition at 1 µM of C[C@H](Nc1nccc2c1N(Cc1ccc3ccccc3c1)CCO2)c1ccc(C(=O)O)cc1 [Example B29] : 96

Memo: Cc1cnc(N[C@@H](C)c2ccc(C(=O)O)cc2)c2c1OCCN2Cc1cccc(C(F)(F)F)c1 [Example B46] , reported inhibition at 1 µM: 95

Entry Cc1ccc(CN2CCOc3ccnc(NC4(c5ccc(C(=O)O)cc5)CC4)c32)cc1 [Example B26] ; inhibition at 1 µM = 87

GET /value?item= O=C(O)c1ccc(C2(Nc3nccc4c3N(Cc3cccc(F)c3)CCO4)CC2)cc1 [Example B16] &field=inhibition at 1 µM returns 88

In plain terms, C[C@H](Nc1nccc2c1N(Cc1ccc(F)cc1)CCO2)c1ccc(C(=O)O)cc1 [Example B9] has a documented inhibition at 1 µM of 100

The value of inhibition at 1 µM measured for the compound C[C@H](Nc1nccc2c1N(Cc1ccc(C(F)(F)F)cc1)CCC2)c1ccc(C(=O)O)cc1 [Example B37] turned out to be 97

So for Cc1cccc(CN2CCOc3ccnc(NC4(c5ccc(C(=O)O)cc5)CC4)c32)c1 [Example B25] , the logged inhibition at 1 µM turned out to be 79

====

molecular target: human EP4 receptor (Homo sapiens); construct: expressed in transfected cells; host or cells: FreeStyle293 (HEK293F) cells, transient transfection with pcDNA3.1(+), total membrane fraction; experiment: hEP4 radioligand binding assay ([3H] PGE2 competitive binding, membrane fractions); details: 300 nM compound; 1 nM [3H] PGE2
parameter: inhibition at 0.3 µM (%)
Field format: number, assumed %, no unit text.

The compound C[C@H](Nc1nccc2c1N(Cc1cc(F)cc(F)c1)CCO2)c1ccc(C(=O)O)cc1 [Example B13] , tested on human EP4 receptor (Homo sapiens), showed inhibition at 0.3 µM of 92

Observed inhibition at 0.3 µM, human EP4 receptor (Homo sapiens), O=C(O)c1ccc(C2(Nc3nccc4c3N(Cc3ccccc3)CCO4)CC2)cc1 [Example B22] : 80

Value sought: inhibition at 0.3 µM, system human EP4 receptor (Homo sapiens), item Cc1cccc(CN2CCOc3ccnc(NC4(c5ccc(C(=O)O)cc5)CC4)c32)c1 [Example B25] . Result: 98

// compound COc1ccc(CN2CCOc3ccnc(N[C@@H](C)c4ccc(C(=O)O)cc4)c32)cc1 [Example B15] , assay human EP4 receptor (Homo sapiens), inhibition at 0.3 µM value: 98

====

molecular target: hEP4 (C6 glioma cells overexpressing hEP4) (Homo sapiens, UniProt P35408); construct: host or cells: C6 glioma cells overexpressing hEP4; assay: hEP4 cell based assay (cAMP), inhibition of PGE2 induced cAMP, HTRF; conditions: 1 μM compound, PGE2 at EC80
Rule: inhibition at 1 µM of 90% or more gives 1; anything lower gives -1.

Can C[C@H](Nc1nccc2c1N(Cc1cccc(Cl)c1)CCO2)c1ccc(C(=O)O)cc1 [Example B2] be said to have inhibition at 1 µM at or above 90%?
1

For this compound, is measured inhibition at 1 µM 90% or higher? C[C@@H](Nc1nccc2c1N(Cc1ccc(C(F)(F)F)cc1)CCO2)c1ccc(C(=O)O)cc1 [Example B32]
-1

API: above_or_equal(metric=inhibition at 1 µM, cutoff=90%) for item C[C@H](Nc1nccc2c1N(Cc1ccc(-c3ccccc3)cc1)CCO2)c1ccc(C(=O)O)cc1 [Example B30]
-1

Quick check: does C[C@H](Nc1nccc2c1N(Cc1cccc(C(F)(F)F)c1)CCO2)c1ccc(C(=O)O)cc1 [Example B14] have inhibition at 1 µM greater than or equal to 90%?
1

Does inhibition at 1 µM meet or surpass 90% for C[C@H](Nc1nccc2c1N(Cc1cccc(F)c1)CCO2)c1ccc(C(=O)O)cc1 [Example B8] ?
1

Does the compound O=C(O)c1ccc(C2(Nc3nccc4c3N(Cc3ccc(Cl)cc3)CCO4)CC2)cc1 [Example B19] have recorded inhibition at 1 µM that is 90% or more?
-1

Has CCONC(=O)c1ccc([C@H](C)Nc2nccc3c2N(Cc2ccc(C(F)(F)F)cc2)CCO3)cc1 [Example D4] a recorded inhibition at 1 µM greater than or equal to 90%?
1

Is reported inhibition at 1 µM greater than or equal to 90% here: C[C@@H](Nc1nccc2c1N(Cc1cccc(Cl)c1)CCO2)c1ccc(C(=O)O)cc1 [Example B33]
-1

Could you please find out whether O=C(O)c1ccc(C2(Nc3nccc4c3N(Cc3cc(F)cc(F)c3)CCO4)CC2)cc1 [Example B17] has inhibition at 1 µM that meets 90% or exceeds it?
-1

Hello, I need to know if C[C@H](Nc1nccc2c1N(Cc1ccc(Cl)cc1)CCO2)c1ccc(C(=O)O)cc1 [Example B7] has measured inhibition at 1 µM not below 90%. Thanks!
1

Reported inhibition at 1 µM at or above 90%? C[C@H](Nc1nccc2c1N(CC1CCCCC1)CCO2)c1ccc(C(=O)O)cc1 [Example B39]
1

Is inhibition at 1 µM at least 90%? Consider O=C(O)c1ccc(C2(Nc3nccc4c3N(Cc3ccc(F)c(F)c3)CCO4)CC2)cc1 [Example B4]
1

Tell me whether inhibition at 1 µM is at least 90% here: C[C@H](Nc1nccc2c1N(Cc1cccc(Cl)c1)CCC2)c1ccc(C(=O)O)cc1 [Example B45]
1

====

Record form. Attribute: inhibition at 0.3 µM. Fill in for each entry.
target: human EP4 receptor (Homo sapiens); construct: expressed in transfected cells; host or cells: FreeStyle293 (HEK293F) cells, transient transfection with pcDNA3.1(+), total membrane fraction; assay: hEP4 radioligand binding assay ([3H] PGE2 competitive binding, membrane fractions); conditions: 300 nM compound; 1 nM [3H] PGE2
Value expressed in %; do not type the unit.

Short answer for C[C@H](Nc1ncc(C2CC2)c2c1N(Cc1cccc(C(F)(F)F)c1)CCO2)c1ccc(C(=O)O)cc1 : inhibition at 0.3 µM was 60

Record C[C@H](Nc1nccc2c1N(Cc1ccc3ccccc3c1)CCO2)c1ccc(C(=O)O)cc1 . Reported inhibition at 0.3 µM: 100

According to the records, this compound C[C@H](Nc1nccc2c1N(Cc1ccc(Cl)cc1)CCO2)c1ccc(C(=O)O)cc1 displays inhibition at 0.3 µM of 99

Per the records, this compound ( C[C@H](Nc1nccc2c1N(Cc1cccc(Cl)c1)C(=O)CS2)c1ccc(C(=O)O)cc1 ) has inhibition at 0.3 µM equal to 10

====

target: human EP4 receptor (Homo sapiens, UniProt P35408); construct: expressed in transfected cells; host or cells: FreeStyle293 (HEK293F) cells, transient transfection with pcDNA3.1(+), total membrane fraction; assay: hEP4 radioligand binding assay ([3H] PGE2 competitive binding, membrane fractions); settings: 300 nM compound; 1 nM [3H] PGE2
Sequence (P35408 whole entry): as above
Label 0.0 if inhibition at 0.3 µM falls below 90%; label 1.0 in every other case.

Given CONC(=O)c1ccc([C@H](C)Nc2nccc3c2N(Cc2ccc(C(F)(F)F)cc2)CCO3)cc1 [Example D2] , state whether its inhibition at 0.3 µM is at least 90%.
0.0

hey, is inhibition at 0.3 µM for this one >= 90%? C[C@H](Nc1nccc2c1N(Cc1ccc(C(F)(F)F)cc1)CCC2)c1ccc(C(=O)O)cc1 [Example B37]
1.0

Item COc1cccc(CN2CCOc3ccnc(NC4(c5ccc(C(=O)O)cc5)CC4)c32)c1 [Example B23] with inhibition at 0.3 µM of 90% or above?
1.0

Is the recorded value of inhibition at 0.3 µM equal to or greater than 90% for this molecule? C[C@H](Nc1nccc2c1N(CCOc1ccc(F)cc1)CCO2)c1ccc(C(=O)O)cc1 [Example B3]
0.0

I'd appreciate it if you could say whether O=C(O)c1ccc(C2(Nc3nccc4c3N(Cc3ccc(F)cc3)CCO4)CC2)cc1 [Example B18] has inhibition at 0.3 µM at least equal to 90%.
1.0

Hi, just wondering whether C[C@@H](Nc1nccc2c1N(Cc1cccc(Cl)c1)CCO2)c1ccc(C(=O)O)cc1 [Example B33] shows inhibition at 0.3 µM of 90% or higher.
0.0

# bool: inhibition at 0.3 µM of C[C@H](Nc1nccc2c1N(Cc1ccccc1)CCO2)c1ccc(C(=O)O)cc1 [Example B1] >= 90%
1.0

Check this molecule for inhibition at 0.3 µM at or above 90%: COC(=O)c1ccc([C@H](C)Nc2ncnc3c2N(Cc2cccc(Cl)c2)C(=O)CO3)cc1 [Example A46]
0.0

Quick check, inhibition at 0.3 µM >= 90%? O=C(O)c1ccc(C2(Nc3nccc4c3N(Cc3cccc(F)c3)CCO4)CC2)cc1 [Example B16]
1.0

Textbook exercise: given the entry COC(=O)c1ccc([C@H](C)Nc2nccc3c2N(C(=O)c2ccc(C(F)(F)F)cc2)CCO3)cc1 [Example A48] , state whether its inhibition at 0.3 µM is greater than or equal to 90%.
0.0

Is inhibition at 0.3 µM for C[C@H](Nc1nccc2c1N(Cc1cccc(C(F)(F)F)c1)CCO2)c1ccc(C(=O)O)cc1 [Example B14] at or above 90%?
1.0

State whether the measured inhibition at 0.3 µM reaches 90%, counting equality as reaching it, for Cc1cccnc1CNc1nccc2c1N(Cc1ccc(F)c(F)c1)CCO2 [Example A50]
0.0

Has C[C@H](Nc1nccc2c1N(Cc1ccc(C(F)(F)F)cc1)CCO2)c1ccc(C(=O)O)cc1 [Example B5] a recorded inhibition at 0.3 µM greater than or equal to 90%?
0.0
